EC50 values by entry
# tested-on: UniProtKB P26358
# Sequence (P26358 whole entry, looked up, the tested form may be a part): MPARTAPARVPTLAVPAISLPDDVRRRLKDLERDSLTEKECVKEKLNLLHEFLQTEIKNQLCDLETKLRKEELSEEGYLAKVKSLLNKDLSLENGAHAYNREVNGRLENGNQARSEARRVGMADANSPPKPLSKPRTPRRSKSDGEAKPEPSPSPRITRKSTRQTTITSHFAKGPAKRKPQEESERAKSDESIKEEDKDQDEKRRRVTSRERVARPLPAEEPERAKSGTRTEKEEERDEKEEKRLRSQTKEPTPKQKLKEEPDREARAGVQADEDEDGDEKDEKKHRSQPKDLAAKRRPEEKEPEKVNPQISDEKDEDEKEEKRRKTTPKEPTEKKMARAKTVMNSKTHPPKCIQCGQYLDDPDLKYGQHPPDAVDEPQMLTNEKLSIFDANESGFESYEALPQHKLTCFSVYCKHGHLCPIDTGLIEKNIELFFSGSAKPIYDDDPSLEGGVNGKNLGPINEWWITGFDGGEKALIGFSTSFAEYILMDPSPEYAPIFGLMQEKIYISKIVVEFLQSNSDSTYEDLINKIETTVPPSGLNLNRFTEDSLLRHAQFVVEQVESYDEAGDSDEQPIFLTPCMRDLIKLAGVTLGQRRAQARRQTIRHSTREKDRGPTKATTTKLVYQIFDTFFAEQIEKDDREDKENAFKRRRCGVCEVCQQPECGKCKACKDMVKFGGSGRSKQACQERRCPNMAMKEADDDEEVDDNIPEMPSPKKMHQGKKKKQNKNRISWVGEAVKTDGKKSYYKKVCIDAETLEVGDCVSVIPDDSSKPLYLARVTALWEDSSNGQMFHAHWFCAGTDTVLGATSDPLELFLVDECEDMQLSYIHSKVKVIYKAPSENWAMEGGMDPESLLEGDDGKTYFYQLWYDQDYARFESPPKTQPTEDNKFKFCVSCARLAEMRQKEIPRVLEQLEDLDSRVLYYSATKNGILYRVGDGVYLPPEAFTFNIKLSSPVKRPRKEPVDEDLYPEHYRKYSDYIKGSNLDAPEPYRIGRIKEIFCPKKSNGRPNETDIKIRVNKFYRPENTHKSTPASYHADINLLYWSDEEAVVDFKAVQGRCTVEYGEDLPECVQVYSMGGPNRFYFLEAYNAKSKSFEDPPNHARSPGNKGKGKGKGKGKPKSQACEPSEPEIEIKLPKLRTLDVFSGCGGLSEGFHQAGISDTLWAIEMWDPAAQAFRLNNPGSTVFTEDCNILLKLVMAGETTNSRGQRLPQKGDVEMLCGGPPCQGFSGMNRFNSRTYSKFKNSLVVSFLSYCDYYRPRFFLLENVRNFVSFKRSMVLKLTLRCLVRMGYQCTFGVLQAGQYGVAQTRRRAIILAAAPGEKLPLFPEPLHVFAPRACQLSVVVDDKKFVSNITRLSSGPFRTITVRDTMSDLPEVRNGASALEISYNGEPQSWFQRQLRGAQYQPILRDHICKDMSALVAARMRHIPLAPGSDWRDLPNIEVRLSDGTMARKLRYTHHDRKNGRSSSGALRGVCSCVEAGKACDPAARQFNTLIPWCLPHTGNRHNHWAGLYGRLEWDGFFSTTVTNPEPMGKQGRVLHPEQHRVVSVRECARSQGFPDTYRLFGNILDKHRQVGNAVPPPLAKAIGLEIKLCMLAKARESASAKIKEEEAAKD
# test-description: Inhibition of NLuc-fused DNMT1 expressed hypomorphic in human HCT-116 cells assessed as TSG repoter activation at 3 uM incubated for 72 hrs by Nano-Glo Luciferase assay
# Type: cell-based
The answer is to be given in µM; state only the numeric part.

Completed entries (count: 2):
compound: CCc1c(C#N)c(S[C@H](C(N)=O)c2ccccc2)nc(N2CCC(CNCc3ccc(/C=C/C(=O)NO)cc3)CC2)c1C#N
measure-name: EC50
unit-abbreviation: µM
observed-measurement: 1.18

compound: CCc1c(C#N)c(S[C@@H](C(N)=O)c2ccccc2)nc(N2CCC(CNCc3ccc(/C=C/C(=O)NO)cc3)CC2)c1C#N
measure-name: EC50
unit-abbreviation: µM
observed-measurement: 0.75

Please turn your attention to the following entry.
Name the recorded EC50 for CCc1c(C#N)c(SC(C(N)=O)c2ccccc2)nc(N2CCC(CNCc3ccc(/C=C/C(=O)NO)cc3)CC2)c1C#N (stereo not drawn) . 1.09

====

# test-description: Inhibition of cell viability in human HSPC cells incubated for 4 days in presence of SAHA by CCK8 assay
# Type: toxicity, cell-based
measure-name: IC50 at 4 days (nM)
The answer is to be given in nM; state only the numeric part.

Name the recorded IC50 at 4 days for CCc1c(C#N)c(SC(C(N)=O)c2ccccc2)nc(N2CCC(N)CC2)c1C#N (stereo unspecified) . 800

====

IC50 values by entry
# tested-on: Histone deacetylase
# test-description: Inhibition of HDAC extracted from human HeLa cell nucleus using Boc-Lys(Ac)-AMC as substrate preincubated for 5 mins followed by substrate addition measured after 30 mins by fluorescence based assay
# Assay type: subcellular

Completed entries (count: 5):
compound: CCc1c(C#N)c(SC(C(N)=O)c2ccccc2)nc(N2CCC(NC(=O)c3ccc(C(=O)Nc4ccccc4N)cc3)CC2)c1C#N (configuration not stated)
IC50: > 20 µM
//
compound: CCc1c(C#N)c(SC(C(N)=O)c2ccccc2)nc(N2CCC(NC(=O)Cc3ccc(C(=O)Nc4ccccc4N)cc3)CC2)c1C#N (configuration not stated)
IC50: > 20 µM
//
compound: CCc1c(C#N)c(SC(C(N)=O)c2ccccc2)nc(N2CCC(NCc3ccc(C(=O)NO)cc3)CC2)c1C#N (configuration not stated)
IC50: > 5 µM
//
compound: CCc1c(C#N)c(SC(C(N)=O)c2ccccc2)nc(N2CCC(NCc3ccc(C(=O)Nc4ccccc4N)cc3)CC2)c1C#N (configuration not stated)
IC50: > 20 µM
//
compound: CCc1c(C#N)c(SC(C(N)=O)c2ccccc2)nc(N2CCC(NC(=O)CCCC(=O)Nc3ccccc3N)CC2)c1C#N (configuration not stated)
IC50: > 20 µM

Name the recorded IC50 for CCc1c(C#N)c(SC(C(N)=O)c2ccccc2)nc(N2CCC(NC(=O)CCC(=O)NO)CC2)c1C#N (configuration not stated) . > 5 µM

Same again, this time with CCc1c(C#N)c(SC(C(N)=O)c2ccccc2)nc(N2CCC(NC(=O)CCCCC(=O)NO)CC2)c1C#N (configuration not stated) > 5 µM
